Each recorded value in this set is attributed to patent US9034922B2.

assayTarget: Matrix metalloproteinase 8 (MMP-8) (Homo sapiens)
Sequence (P22894 101-467): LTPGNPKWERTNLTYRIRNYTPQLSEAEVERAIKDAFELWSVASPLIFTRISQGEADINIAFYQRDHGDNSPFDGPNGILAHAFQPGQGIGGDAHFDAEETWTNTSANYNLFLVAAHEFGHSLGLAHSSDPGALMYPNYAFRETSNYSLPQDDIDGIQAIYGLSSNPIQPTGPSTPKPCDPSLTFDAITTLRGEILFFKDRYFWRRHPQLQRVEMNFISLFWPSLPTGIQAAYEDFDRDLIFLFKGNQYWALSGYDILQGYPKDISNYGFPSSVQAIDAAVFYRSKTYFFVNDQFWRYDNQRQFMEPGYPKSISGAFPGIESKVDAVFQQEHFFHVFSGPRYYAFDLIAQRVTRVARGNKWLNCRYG
measurementName: IC50 (nM)
Use nM as the unit, but write only the number.

compound="CC#CCOc1ccc(S(=O)(=O)CC(c2ccc(CN(CC)CC)cc2)N(O)C=O)cc1 (centres unmarked) [Compound I-1]" numericresult=900

Consider the additional compound presented here.
(Q) Sample CC#CCOc1ccc(S(=O)(=O)CC(c2ccc(CNS(C)(=O)=O)cc2)N(O)C=O)cc1 (centres unmarked) [Compound I-4] — what was its IC50?
(A) 950

###

In this section, each of the compounds is paired with its reported IC50.
assayTarget: Matrix metalloproteinase 2 (MMP-2) (Homo sapiens)
Sequence (P08253 110-660): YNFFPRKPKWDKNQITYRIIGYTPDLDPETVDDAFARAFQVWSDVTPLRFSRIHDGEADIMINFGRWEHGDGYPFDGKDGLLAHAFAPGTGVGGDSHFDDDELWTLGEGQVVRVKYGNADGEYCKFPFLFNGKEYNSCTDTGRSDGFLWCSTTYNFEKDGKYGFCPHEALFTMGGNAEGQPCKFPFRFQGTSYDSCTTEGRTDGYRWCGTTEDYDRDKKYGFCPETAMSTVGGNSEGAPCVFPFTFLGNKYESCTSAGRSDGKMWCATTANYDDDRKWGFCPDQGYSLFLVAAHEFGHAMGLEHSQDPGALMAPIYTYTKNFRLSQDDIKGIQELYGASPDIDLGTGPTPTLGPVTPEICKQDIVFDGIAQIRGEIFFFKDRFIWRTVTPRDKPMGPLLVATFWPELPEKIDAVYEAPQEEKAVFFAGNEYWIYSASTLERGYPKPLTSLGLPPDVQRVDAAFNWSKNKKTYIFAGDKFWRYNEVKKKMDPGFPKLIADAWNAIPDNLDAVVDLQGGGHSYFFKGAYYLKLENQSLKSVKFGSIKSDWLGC
Output spec: scalar in nM, unitless text.

compound="CC#CCOc1ccc(S(=O)(=O)CC(c2ccc(CN(CC)CC)cc2)N(O)C=O)cc1 (centres unmarked)" numericresult=150

Next, consider the following compound.
(Q) Recorded IC50 of CC#CCOc1ccc(S(=O)(=O)CC(c2ccc(CNS(C)(=O)=O)cc2)N(O)C=O)cc1 (centres unmarked) , please.
(A) 290

###

pIC50: −log10 of the molar value.
Heads up, these compounds all have pIC50 values measured for Matrix metalloproteinase 1 (MMP-1) (Homo sapiens, UniProt P03956).

compound="CC#CCOc1ccc(S(=O)(=O)CC(c2ccc(CN(CC)CC)cc2)N(O)C=O)cc1 (centres unmarked)" result="< 4.00"

Next:
(Q) Reported pIC50 for Matrix metalloproteinase 1 (MMP-1) (Homo sapiens, UniProt P03956), given CC#CCOc1ccc(S(=O)(=O)CC(c2ccc(CNS(C)(=O)=O)cc2)N(O)C=O)cc1 (centres unmarked) ?
(A) < 4.00

###

assayTarget: Matrix metalloproteinase 3 (MMP-3) (Homo sapiens)
Sequence (P08254 100-272 limits assumed): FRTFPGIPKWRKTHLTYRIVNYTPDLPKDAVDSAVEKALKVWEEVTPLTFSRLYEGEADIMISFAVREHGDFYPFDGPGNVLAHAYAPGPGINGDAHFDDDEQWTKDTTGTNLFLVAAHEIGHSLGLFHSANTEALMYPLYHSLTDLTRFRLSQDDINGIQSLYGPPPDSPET
measurementName: pIC50
Note: pIC50 values are expressed as the negative base-10 logarithm of concentration in M.

(Q) Param readout= pIC50; system= Matrix metalloproteinase 3 (MMP-3) (Homo sapiens); entry= CNC(=O)[C@H](Cc1c[nH]c2ccccc12)NC(=O)[C@@H](CC(=O)NO)CC(C)C [GM6001, reference compound] ; returns value.
(A) 7.49

(Q) Field: pIC50 (Matrix metalloproteinase 3 (MMP-3) (Homo sapiens)). Entry: CC#CCOc1ccc(S(=O)(=O)CC(c2ccc(CNS(C)(=O)=O)cc2)N(O)C=O)cc1 (stereo not drawn)
(A) 5.19

(Q) Could you share what pIC50 was measured for CC#CCOc1ccc(S(=O)(=O)CC(c2ccc(CN(CC)CC)cc2)N(O)C=O)cc1 (stereo not drawn) , tested on Matrix metalloproteinase 3 (MMP-3) (Homo sapiens)?
(A) 5.08

###

Quick record: IC50, Matrix metalloproteinase 9 (MMP-9) (Homo sapiens).
Your answer is read as µM, so omit the unit and give the number.

compound="CC#CCOc1ccc(S(=O)(=O)CC(c2ccc(CN(CC)CC)cc2)N(O)C=O)cc1 (centres unmarked)" measurementname=IC50 numericresult=11

Now, please, on to the next compound.
(Q) What does the data say about its IC50? Entry: CC#CCOc1ccc(S(=O)(=O)CC(c2ccc(CNS(C)(=O)=O)cc2)N(O)C=O)cc1 (centres unmarked)
(A) 11

###

Each entry below carries its measured pIC50, system: Matrix metalloproteinase 14 (MMP-14) (Homo sapiens, UniProt P50281).
Recall that pIC50 is obtained by taking minus log10 of the concentration measured in molar.

compound="CC#CCOc1ccc(S(=O)(=O)CC(c2ccc(CN(CC)CC)cc2)N(O)C=O)cc1 (stereo not drawn)" assaytarget="Matrix metalloproteinase 14 (MMP-14) (Homo sapiens, UniProt P50281)" measurementname=pIC50 numericresult=6.00
compound="CC#CCOc1ccc(S(=O)(=O)CC(c2ccc(CNS(C)(=O)=O)cc2)N(O)C=O)cc1 (stereo not drawn)" assaytarget="Matrix metalloproteinase 14 (MMP-14) (Homo sapiens, UniProt P50281)" measurementname=pIC50 numericresult=5.85

Let us examine a further case.
(Q) Returns the measured pIC50 for the input compound. Input: CNC(=O)[C@H](Cc1c[nH]c2ccccc12)NC(=O)[C@@H](CC(=O)NO)CC(C)C [GM6001, reference compound]
(A) 8.80
